- Assay protocol: soluble fraction after stress (log2 fold change); higher = more stays soluble; pooled small domains, quantitative proteomics;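 also: 20 min heating vs room temperature control held 20 min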
- Condition notes: stress: 75 degC
Metric name: soluble fraction (log2)
Answer with a number only.

[[record]]
sequence = "HMETLKEVPNLKGQQQEVAKQLLINAGLGVGKINIIEDSTIADGEVVTQSILPNTKVKKDTYVGFTVNKAP"
metric_name = "soluble fraction (log2)"
quantitative_result = 0.0288


Prompt: Would you kindly share the measured soluble fraction (log2) for "HMPLAQRFGLTVAQARVLDLLAEGRSNRQIGELLGLTEGTVKIHVSAIMKAMGVSNRAEAALMANRKR" ?
Completion: -1.7

Prompt: Entry "HMFMMVAGHLQIKNEKYYMVLELRTEQGERKTKWIGTGLAVKGNKRRAEAMLEETRTKYLSPV" has what soluble fraction (log2)?
Completion: -2.18

Prompt: What value of soluble fraction (log2) has been reported for the following sequence? "HMNVDSLIGQTARVIVDINNNDSIGYALVGGQEWTARAENDNDIIPKDTLVEIVGVSGVKLIVRRKE"
Completion: 0.0563

Prompt: What value of measured soluble fraction (log2) is listed for "HMTNADRFIGEEAMVIKKIDDINNDGQVKIAGQVWSAVSEDKSPLEEGTIVKVIAIRGVKLVVEPVS" ?
Completion: -0.369

Prompt: For "HMTVKVPDLRGKTLAEMQRILDDAGLKYEINDSTFSRTAIPGTVREVIPAPGSEVKLGRILFIAINGF" , what is its reported soluble fraction (log2)?
Completion: -2.19

Prompt: Could you share which soluble fraction (log2) value was measured for "HMDDVIDVYATYDVSPTNQISNIKLYSDAAHANPVTGEAGKSYNDITEGHPGYQFRWSGTTWVPI" ?
Completion: -1.04

Prompt: Given the sequence "HMEWTVEKQAAATLNAWMRKNSEMTSEKKVAVAAGIGPATVNRIMKAEVSTTIGVLSSLARAFGHEAYEMI" , what is its reported soluble fraction (log2)?
Completion: -0.0249

* * *

- Assay protocol: soluble fraction after stress (log2 fold change); higher = more stays soluble; pooled small domains, quantitative proteomics
- Condition notes: stress: 75 degC
// reported soluble fraction (log2) per item

[[record]]
sequence = "HMILKNVTSDLANKRLDKVASILFQTYSRTQIKKWILEGRVLVNGEISNPKDHVHENDEIEINPI"
result = -1.9

[[record]]
sequence = "HMESADEESNALMYDGLLAMRGKRYEVALEFFDALVKHDPDFAEGWNKRATVLYLLGRYERSIADIKQVLA"
result = 0.239


Prompt: Look up soluble fraction (log2) for this sequence: "HMFTRFTVAQDGWTIGGFTAKEMAVSTAKQHAVDTGKPVTVVAHVAGGGSREAIFNSDGTNDKIWN"
Completion: 0.065

Prompt: Report soluble fraction (log2) for "HMIMVAGHLQIKKGKYYMVLELKSESGERKTKWISTGLSAKGNKRKAEAMLEEARENYQSTDA" please.
Completion: -1.13

Prompt: Param item = "HMEPDEESVRLKEEILSRIDYWHTTMPYMGTRKLAAKLRTEGYAVGRKLVRTYMREMGIHAVYP" ; retrieve measured soluble fraction (log2).
Completion: -0.103

Prompt: Any idea what its soluble fraction (log2) is? The sequence is "HMEIEEIDYGTFLQMVEDGVVEKIELTDTQIFLTSTVDNDDKVYTTGVMPDQDLTNRLIEAGVVNFGKVV"
Completion: 0.134

Prompt: What does the data say about its soluble fraction (log2)? Entry: "HMSIEIIEITSNSSPKNLSEIIDIDATQIVADLMGLGIMKAIDTPLENSEIEQLLEKYNLIAEFVE"
Completion: -2.76

Prompt: Report soluble fraction (log2) for "HMTSLGLEGLVNTTAIATSDLRPSGWALAGERKIFVVSEGEFIDNGDKIRILTVDGNRIVVRKETNK" please.
Completion: -0.477

Prompt: Would you mind telling me what soluble fraction (log2) value was observed for "HMTDSDTQDIDVGELRVGHFVFLDLSWIRHPFPLSSFKIQSAEQIKTIRSLGLRRIRYSPGRSGP" ?
Completion: -1.31

Prompt: Param item = "HMKDTFHNLSEEKRERIIRAALGEFAASGYEKATLDGVVQAAGISKGGLYEYISSKEDLFRYLLEYSYD" ; retrieve measured soluble fraction (log2).
Completion: -1.82

Prompt: Dear colleague, I am looking for the recorded soluble fraction (log2) of the following sequence: "HMSSTPEPPQAVLDLVNLREQARAGKDWTQSDAFRQQIAALGWTVKDTKDGPVVSLSPTTTE"
Completion: 0.392

Prompt: // query soluble fraction (log2) value for entry "HMLGRPDMSPIPEGSRNNDLHAWGFGRLANHPDNKRQIEADFFERGRISGLGDAEIRASWNSILRQLGHQ"
Completion: 0.0693

Prompt: Query: soluble fraction (log2); subject: "HMNSNQESFENWLSANSWYNKDRAMRVFADSLGQELRNSGVSFEKALTQISAEVRKEFSHKFQ"
Completion: -0.491

Prompt: // query soluble fraction (log2) value for entry "HMQQIQILPDGKIKLPDLSGTNMREAIEILHKGGLRMKPYGSGNAYQQKPAAGETVASGTTVEVLSL"
Completion: 0.151

Prompt: Name the recorded soluble fraction (log2) for "HMYPGQILEIYLDEIKRLYLNGLSSADIFAEIKEGSIPSVKKAIRSMKDGSAPVKITEAEESTRIAPS" .
Completion: -0.543

Prompt: For the sequence shown here, "HMGISNEETFLLEKMSSGRRYSRKELDNLMGFEKTKTIRLLGSLINKGLVVAEGVNRARRYIR" , give the reported soluble fraction (log2).
Completion: -1.27

Prompt: // lookup soluble fraction (log2) for "HMDDNMNEQWKMILNSIAKKGSVTRQETEKILGIGQTRAHVLLKAMIHAGMIKAVGDGKKRRYVR"
Completion: -2.28

* * *

- Assay protocol: soluble fraction after stress (log2 fold change); higher = more stays soluble; pooled small domains, quantitative proteomics
- Condition notes: stress: 75 degC
Metric name: soluble fraction (log2)

Example cases with answers are listed next.
[[record]]
sequence = "HMKSTELSIIEALRVLGLKHGASQDSIKKSYRRLVKQHHPDLGGSADSFRKVNEAYQLLIMN"
metric_name = "soluble fraction (log2)"
result = -0.749

[[record]]
sequence = "HMTKGFSIQDISLSKSTMTFLQQNKITDLASLLSMSKSQIEGMKGFKPKMIQEIEKNLDKVGLVLAQD"
metric_name = "soluble fraction (log2)"
result = -0.243

[[record]]
sequence = "HMNMEPNWLKWAKQLAALAQNGLTYSDNPYEIERYEHIRRIAAEMMAEGFELDTKTILELFPREKG"
metric_name = "soluble fraction (log2)"
result = -2.68

[[record]]
sequence = "HMAQPIPSGSDIREAREAAGMNLRDFARMVGGGAIGTWSHYETGKPIRVKSISPEVWQRVRDFILQHGK"
metric_name = "soluble fraction (log2)"
result = -0.676

[[record]]
sequence = "HMREYRITAEEGHPRIDVFLAGRPEIGLSRSRIQALIDEGQVTLNGAMPKARQAVNPGDVIVVRVPDPE"
metric_name = "soluble fraction (log2)"
result = 0.0963


Prompt: Query: soluble fraction (log2); subject: "HMTVTMADISQAYNEKRYLTTISLSNTYLTFAKPTTELLSIRYRTYFIIGKYAESLTEIAKL"
Completion: 0.294

Prompt: Would you kindly share the measured soluble fraction (log2) for "HMRLSAADLQSYLKGMDYPASRQDLIAHARGHNAPEEAVATLEQFSDRTYRSAADVSVEFGRE" ?
Completion: 0.254

Prompt: # lookup: soluble fraction (log2) of "HMGGKYKGVIIGHLIDKTLRYNELQKLISHATPKMLIQQLKELEADGIIQRKLYPVVPPKTEYSLTERG"
Completion: -0.973

* * *

- Assay protocol: soluble fraction after stress (log2 fold change); higher = more stays soluble; pooled small domains, quantitative proteomics
- Condition notes: stress: 75 degC
Metric name: soluble fraction (log2)
Respond numerically, and do not add a unit to the figure.

Please review the entries below; each comes with its answer.
[[record]]
sequence = "HMVAISNTSGLAGVAYWIQSNIPKGIDIRKDNPGIVTIKNWIDEEYRKGRTTTISEEEMFKLVREYMPEL"
quantitative_result = -1.87

[[record]]
sequence = "HMGNPSGLPLPRFASTRSEPINVRVGPGQKYDIAWTYLKSGIPVEIIQEFDTWRKIRDFDGAEGWIHQNLL"
quantitative_result = -1.22


Prompt: Can you share its soluble fraction (log2)? I mean this sequence: "HMTLNTQLFTWKKGVRVGEDDQGNIYYRTKDDKRRWVIFTGETEATKVSPDWHGWLHRTWATPPNK"
Completion: -2.27

Prompt: Fill blank: measured soluble fraction (log2) of the sequence "HMSVTYRYSYVYNGNTYSDGWSVRRAIENNENKRFGPEPSDLDHEAQKQARVTFWAEHGVEYKEQEVV" is ____.
Completion: -1.24

Prompt: Param item = "HMGTPEQVVVSSVLKETNEIVLKWPADGFMAKYKMDNLNLNFEPVHGQGVMGYFIGSRLIKLELV" ; retrieve measured soluble fraction (log2).
Completion: -1.43

Prompt: What value of measured soluble fraction (log2) is listed for "HMEKPAQDVLASHREWMGEMIKAEHMTAKQVWRLLRERADIGVSYPTVKRYLRAHFQFGGPS" ?
Completion: -1.57

Prompt: Value lookup for soluble fraction (log2); key = "HMGDEHYDTISAFIKSVRGSDPDAALYWLAKMILAGEDPRFILRRLIVLSGEDIGLADPQGI"
Completion: -0.552
